Tested on: HCV 1b_Huh-Luc/Neo-ET cell line persistently expressing a bicistronic genotype 1b replicon in Huh 7 cells
Test: HCV replicon assay (luciferase readout, 72 h)
Type: cell-based, HCV genotype 1b
Details: Hepatitis C virus, Huh-7, 72 h, read-out: Inhibition of HCV genotype 1b
Kindly state EC50 for each of the entries shown.

Determine its reported EC50: `COC(=O)N[C@@H](C(=O)N1CCC[C@H]1c1ncc(C#Cc2ccc(C#Cc3cnc([C@@H]4CCCN4C(=O)[C@@H](c4ccccc4)N4CCCCC4)[nH]3)cc2)[nH]1)c1ccccc1`
< 1 nM

Tell me measured EC50 for `O=C(N[C@@H](C(=O)N1CCC[C@H]1c1ncc(C#Cc2ccc(-c3ccc(-c4cnc([C@@H]5CCCN5C(=O)[C@H](NC(=O)N5CC[C@H](O)C5)c5ccccc5)[nH]4)cc3)cc2)[nH]1)c1ccccc1)N1CC[C@H](O)C1` please.
< 1 nM

Quick one: give measured EC50 for COC(=O)NC(C(=O)N[C@@H](C)c1ncc(-c2ccc(C#Cc3ccc(-c4cnc([C@@H]5CCCN5C(=O)[C@H](NC(=O)OC)c5ccccc5)[nH]4)cc3)cc2)[nH]1)c1ccccc1 (stereo partly shown)
< 1 nM

Fill in EC50 for record `COC(=O)N[C@H](C(=O)N1CCC[C@H]1c1ncc(-c2ccc3nc(C#Cc4ccc5nc([C@@H]6CCCN6C(=O)[C@@H](NC(=O)OC)C6CCOCC6)[nH]c5c4)ccc3c2)[nH]1)C1CCOCC1`
< 1 nM

Tell us which EC50 value is on record for `CC(C)[C@@H](NC(=O)C1CC1)C(=O)N1CCC[C@H]1C(=O)NCCc1ccc(C#Cc2cnc([C@@H]3CCCN3C(=O)[C@H](NC(=O)C3CC3)C(C)C)[nH]2)cc1`
10 to 999 nM

Tell me its EC50 given `COC(=O)N[C@H](C(=O)N1CCC[C@H]1c1nc(-c2ccc3cc(C#Cc4[nH]c([C@@H]5CCCN5C(=O)[C@@H](NC(=O)OC)C(C)C)nc4C)ccc3c2)c[nH]1)C(C)C` as the entry.
< 1 nM

Item `COC(=O)N[C@@H](C(=O)N1CCC[C@H]1c1ncc(C#Cc2ccc(-c3cnc([C@@H]4CCCN4C(=O)[C@H](NC(=O)OC)c4ccccc4)[nH]3)cc2)[nH]1)c1ccccc1` : provide EC50
< 1 nM
